Collected literature values of IC50 measured for Nitric oxide synthase 1 (Rattus norvegicus).
Answers are plain numbers, in µM.

// worked examples, IC50 included
- compound: "N=C(Nc1ccc2[nH]ccc2c1)c1cccs1"
  subject-of-test: "Nitric oxide synthase 1 (Rattus norvegicus)"
  reading-unit: "µM"
  IC50: 57.6
- compound: "Cl.Cl.Cl.Cl.NCCN1CC(Cc2cccc(N)n2)C(NCCCc2ccccc2)C1 (racemic)"
  subject-of-test: "Nitric oxide synthase 1 (Rattus norvegicus)"
  reading-unit: "µM"
  IC50: 34.6
- compound: "Cl.Cl.Cl.Cl.Nc1cccc(C[C@@H]2CNC[C@@H]2NC[C@H]2CCCN2)n1"
  subject-of-test: "Nitric oxide synthase 1 (Rattus norvegicus)"
  reading-unit: "µM"
  IC50: 39.5

Below is a list of compounds. For each, state its recorded IC50.
1. Cl.Cl.Cl.Cl.Nc1cccc(C[C@@H]2CNC[C@@H]2NC[C@@H]2CCCN2)n1
2. COc1ccccc1CNCCO[C@@H]1CNC[C@@H]1Cc1cc(C)cc(N)n1
3. Cl.Cl.Cl.NCCN1C[C@H](Cc2cccc(N)n2)[C@@H](O)C1 (racemic)
4. Cl.Cl.Cl.Cl.Nc1cccc(C[C@H]2CNC[C@H]2NC[C@H]2CCCN2)n1

1. 49.2
2. 7.1
3. 108
4. 19

# IC50 lookup, item `Cl.Cl.Cl.Cl.Nc1cccc(C[C@@H]2CNC[C@H]2NC[C@H]2CCCN2)n1` 107
